# Test system: Escherichia coli TOP10
# PROCEDURE TEXT: shrunken log2 fold change of peptide-encoding DNA abundance (4.5 h post-induction vs induction); higher = less antimicrobial activity (less host growth inhibition)
# CONDITION LABEL: time post-induction: 4.5 h; library: site-saturation at positions 5, 18, 19, 20
Assign class by shrunken log2 fold change: not lower than -0.02 means YES; lower than -0.02 means NO.

SEQUENCE TEXT	LABEL VALUE
RRIRWRPPRLPRPRPRPWHTPRP	YES
RRIRGRPPRLPRPRPRPWKTPRP	NO
RRIRLRPPRLPRPRPRPKNIPRP	NO
RRIRLRPPRLPRPRPRPPVGPRP	YES
RRIRYRPPRLPRPRPRPALCPRP	NO
RRIRIRPPRLPRPRPRPIRTPRP	NO
RRIRCRPPRLPRPRPRPQCCPRP	YES
RRIRCRPPRLPRPRPRPFETPRP	YES
RRIRRRPPRLPRPRPRPRYFPRP	YES
RRIRIRPPRLPRPRPRPLQTPRP	YES
RRIRQRPPRLPRPRPRPLYAPRP	NO
RRIRERPPRLPRPRPRPTCWPRP	YES
RRIRNRPPRLPRPRPRPYSKPRP	NO
RRIRARPPRLPRPRPRPFEKPRP	NO
RRIRFRPPRLPRPRPRPHQAPRP	NO
RRIRTRPPRLPRPRPRPWYMPRP	NO
RRIRDRPPRLPRPRPRPRRMPRP	NO
RRIRHRPPRLPRPRPRPVTGPRP	NO
RRIRDRPPRLPRPRPRPYTMPRP	YES
RRIRHRPPRLPRPRPRPIIAPRP	NO
RRIRWRPPRLPRPRPRPKQVPRP	YES
RRIRIRPPRLPRPRPRPDWIPRP	NO
RRIRRRPPRLPRPRPRPDVLPRP	YES
RRIRERPPRLPRPRPRPMRGPRP	YES
RRIRQRPPRLPRPRPRPAAWPRP	YES
RRIRVRPPRLPRPRPRPENCPRP	NO
RRIRWRPPRLPRPRPRPQFLPRP	NO
RRIRYRPPRLPRPRPRPGPLPRP	NO
RRIRKRPPRLPRPRPRPQGNPRP	YES
RRIRLRPPRLPRPRPRPITCPRP	NO
RRIRQRPPRLPRPRPRPQKMPRP	YES
RRIRSRPPRLPRPRPRPAAIPRP	YES
RRIRKRPPRLPRPRPRPSVCPRP	NO
RRIRERPPRLPRPRPRPWAYPRP	NO
RRIRWRPPRLPRPRPRPWDQPRP	YES
RRIRTRPPRLPRPRPRPVNGPRP	YES
RRIRVRPPRLPRPRPRPIKRPRP	YES
RRIRQRPPRLPRPRPRPEDVPRP	NO
RRIRFRPPRLPRPRPRPRCVPRP	NO
RRIRTRPPRLPRPRPRPYDYPRP	YES
RRIRSRPPRLPRPRPRPANFPRP	YES
RRIRPRPPRLPRPRPRPDYLPRP	NO
RRIRWRPPRLPRPRPRPAASPRP	YES
RRIRLRPPRLPRPRPRPFLIPRP	NO
RRIRLRPPRLPRPRPRPVTHPRP	NO
RRIRYRPPRLPRPRPRPRAHPRP	NO
RRIRARPPRLPRPRPRPQVLPRP	NO
RRIRVRPPRLPRPRPRPFRDPRP	NO
RRIRARPPRLPRPRPRPCWFPRP	YES
RRIRFRPPRLPRPRPRPQCLPRP	NO
RRIRGRPPRLPRPRPRPNMVPRP	YES

---

# Test system: Escherichia coli TOP10
# PROCEDURE TEXT: shrunken log2 fold change of peptide-encoding DNA abundance (4.5 h post-induction vs induction); higher = less antimicrobial activity (less host growth inhibition)
# CONDITION LABEL: time post-induction: 4.5 h; library: site-saturation at positions 5, 18, 19, 20
READOUT LABEL: shrunken log2 fold change

SEQUENCE TEXT	RECORDED RESULT
RRIRWRPPRLPRPRPRPLEFPRP	0.0696
RRIRWRPPRLPRPRPRPAMPPRP	0.446
RRIRERPPRLPRPRPRPCMVPRP	-1.08
RRIRYRPPRLPRPRPRPRVFPRP	-0.167
RRIRVRPPRLPRPRPRPGYHPRP	-0.364
RRIRLRPPRLPRPRPRPGLVPRP	0.0948
RRIRIRPPRLPRPRPRPRTWPRP	-0.0123
RRIRIRPPRLPRPRPRPLAIPRP	-1.11
RRIRERPPRLPRPRPRPSENPRP	-0.293
RRIRLRPPRLPRPRPRPGLKPRP	0.12
RRIRRRPPRLPRPRPRPCRDPRP	0.0656
RRIRNRPPRLPRPRPRPSGIPRP	-0.983
RRIRHRPPRLPRPRPRPQMSPRP	-0.0899
RRIRSRPPRLPRPRPRPRIKPRP	-0.00375
RRIRARPPRLPRPRPRPFCMPRP	0.0299
RRIRQRPPRLPRPRPRPFQYPRP	-0.306
RRIRIRPPRLPRPRPRPHTHPRP	-0.92
RRIRRRPPRLPRPRPRPEHGPRP	0.0177
RRIRSRPPRLPRPRPRPMKGPRP	-0.311

---

Reported values of shrunken log2 fold change for individual entries
# System: Escherichia coli TOP10;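 further: peptides expressed intracellularly from a pBAD plasmid library in pooled LB shake-flask culture, induced with 0.3% L-arabinose, DNA abundance read by NGS, three biological replicates, DESeq2 with apeglm shrinkage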
# PROCEDURE TEXT: shrunken log2 fold change of peptide-encoding DNA abundance (4.5 h post-induction vs induction); higher = less antimicrobial activity (less host growth inhibition)
# CONDITION LABEL: time post-induction: 4.5 h; library: site-saturation at positions 5, 18, 19, 20
READOUT LABEL: shrunken log2 fold change

SEQUENCE TEXT	ASSAYED SYSTEM	READOUT LABEL	RECORDED RESULT
RRIRARPPRLPRPRPRPCGMPRP	Escherichia coli TOP10	shrunken log2 fold change	0.0551
RRIRMRPPRLPRPRPRPTGTPRP	Escherichia coli TOP10	shrunken log2 fold change	0.407
RRIRKRPPRLPRPRPRPIKRPRP	Escherichia coli TOP10	shrunken log2 fold change	0.0734
RRIRYRPPRLPRPRPRPPPFPRP	Escherichia coli TOP10	shrunken log2 fold change	0.328
RRIRCRPPRLPRPRPRPRIMPRP	Escherichia coli TOP10	shrunken log2 fold change	-0.293
RRIRNRPPRLPRPRPRPCHKPRP	Escherichia coli TOP10	shrunken log2 fold change	-0.00663
RRIRKRPPRLPRPRPRPNICPRP	Escherichia coli TOP10	shrunken log2 fold change	-0.0826
RRIRYRPPRLPRPRPRPDFTPRP	Escherichia coli TOP10	shrunken log2 fold change	-0.0212
RRIRNRPPRLPRPRPRPYWFPRP	Escherichia coli TOP10	shrunken log2 fold change	-0.124
RRIRGRPPRLPRPRPRPRLEPRP	Escherichia coli TOP10	shrunken log2 fold change	1.16
RRIRARPPRLPRPRPRPIYCPRP	Escherichia coli TOP10	shrunken log2 fold change	0.241
RRIRRRPPRLPRPRPRPCIGPRP	Escherichia coli TOP10	shrunken log2 fold change	-0.328
RRIRSRPPRLPRPRPRPDKDPRP	Escherichia coli TOP10	shrunken log2 fold change	-0.102
RRIRLRPPRLPRPRPRPMIVPRP	Escherichia coli TOP10	shrunken log2 fold change	-0.199
RRIRVRPPRLPRPRPRPAFWPRP	Escherichia coli TOP10	shrunken log2 fold change	2.56
RRIRRRPPRLPRPRPRPQQQPRP	Escherichia coli TOP10	shrunken log2 fold change	-0.0864
RRIRDRPPRLPRPRPRPTRNPRP	Escherichia coli TOP10	shrunken log2 fold change	0.174
RRIRHRPPRLPRPRPRPKPSPRP	Escherichia coli TOP10	shrunken log2 fold change	0.411
RRIRCRPPRLPRPRPRPRNQPRP	Escherichia coli TOP10	shrunken log2 fold change	-0.0402
RRIRIRPPRLPRPRPRPLDCPRP	Escherichia coli TOP10	shrunken log2 fold change	-0.267
RRIRMRPPRLPRPRPRPPNWPRP	Escherichia coli TOP10	shrunken log2 fold change	1.03
RRIRLRPPRLPRPRPRPKCFPRP	Escherichia coli TOP10	shrunken log2 fold change	-0.00607
RRIRTRPPRLPRPRPRPVEYPRP	Escherichia coli TOP10	shrunken log2 fold change	-0.122
RRIRMRPPRLPRPRPRPMQDPRP	Escherichia coli TOP10	shrunken log2 fold change	1.14
RRIRGRPPRLPRPRPRPSVNPRP	Escherichia coli TOP10	shrunken log2 fold change	0.2
RRIRPRPPRLPRPRPRPKHCPRP	Escherichia coli TOP10	shrunken log2 fold change	-0.0919
RRIRFRPPRLPRPRPRPVPPPRP	Escherichia coli TOP10	shrunken log2 fold change	0.46
RRIRFRPPRLPRPRPRPIAAPRP	Escherichia coli TOP10	shrunken log2 fold change	0.417
RRIRDRPPRLPRPRPRPQMNPRP	Escherichia coli TOP10	shrunken log2 fold change	-0.315
RRIRQRPPRLPRPRPRPVFYPRP	Escherichia coli TOP10	shrunken log2 fold change	-0.147
RRIRERPPRLPRPRPRPECSPRP	Escherichia coli TOP10	shrunken log2 fold change	-0.0948
RRIRMRPPRLPRPRPRPVVGPRP	Escherichia coli TOP10	shrunken log2 fold change	0.448
RRIRARPPRLPRPRPRPQVCPRP	Escherichia coli TOP10	shrunken log2 fold change	0.0435
RRIRERPPRLPRPRPRPWSVPRP	Escherichia coli TOP10	shrunken log2 fold change	-0.113
RRIRERPPRLPRPRPRPDTMPRP	Escherichia coli TOP10	shrunken log2 fold change	-0.336
RRIRIRPPRLPRPRPRPFQAPRP	Escherichia coli TOP10	shrunken log2 fold change	-0.0938
RRIRARPPRLPRPRPRPSQYPRP	Escherichia coli TOP10	shrunken log2 fold change	-0.00629
RRIRMRPPRLPRPRPRPLSNPRP	Escherichia coli TOP10	shrunken log2 fold change	-0.0789
RRIRIRPPRLPRPRPRPCWNPRP	Escherichia coli TOP10	shrunken log2 fold change	-0.301
RRIRQRPPRLPRPRPRPAIYPRP	Escherichia coli TOP10	shrunken log2 fold change	-0.0621
RRIRFRPPRLPRPRPRPKVPPRP	Escherichia coli TOP10	shrunken log2 fold change	-0.109
RRIRRRPPRLPRPRPRPTLSPRP	Escherichia coli TOP10	shrunken log2 fold change	-0.0436
RRIRYRPPRLPRPRPRPCRHPRP	Escherichia coli TOP10	shrunken log2 fold change	-0.394
RRIRQRPPRLPRPRPRPYAKPRP	Escherichia coli TOP10	shrunken log2 fold change	-0.122
RRIRGRPPRLPRPRPRPLEAPRP	Escherichia coli TOP10	shrunken log2 fold change	1.44
RRIRMRPPRLPRPRPRPKCCPRP	Escherichia coli TOP10	shrunken log2 fold change	0.26
RRIRCRPPRLPRPRPRPYGKPRP	Escherichia coli TOP10	shrunken log2 fold change	-0.307
RRIRFRPPRLPRPRPRPNTAPRP	Escherichia coli TOP10	shrunken log2 fold change	-0.986
RRIRNRPPRLPRPRPRPKSWPRP	Escherichia coli TOP10	shrunken log2 fold change	0.432
RRIRSRPPRLPRPRPRPTPQPRP	Escherichia coli TOP10	shrunken log2 fold change	0.388
RRIRSRPPRLPRPRPRPETAPRP	Escherichia coli TOP10	shrunken log2 fold change	0.667
RRIRHRPPRLPRPRPRPSTNPRP	Escherichia coli TOP10	shrunken log2 fold change	-0.275
RRIRLRPPRLPRPRPRPMLMPRP	Escherichia coli TOP10	shrunken log2 fold change	-0.177
RRIRPRPPRLPRPRPRPTPNPRP	Escherichia coli TOP10	shrunken log2 fold change	0.579
RRIRCRPPRLPRPRPRPSNKPRP	Escherichia coli TOP10	shrunken log2 fold change	-0.44
RRIRIRPPRLPRPRPRPNLKPRP	Escherichia coli TOP10	shrunken log2 fold change	-0.484
RRIRPRPPRLPRPRPRPNSDPRP	Escherichia coli TOP10	shrunken log2 fold change	-0.39
RRIRHRPPRLPRPRPRPHDRPRP	Escherichia coli TOP10	shrunken log2 fold change	-0.218
RRIRCRPPRLPRPRPRPKPDPRP	Escherichia coli TOP10	shrunken log2 fold change	0.296
RRIRDRPPRLPRPRPRPDAMPRP	Escherichia coli TOP10	shrunken log2 fold change	-0.107
RRIRDRPPRLPRPRPRPVCEPRP	Escherichia coli TOP10	shrunken log2 fold change	1.18
RRIRCRPPRLPRPRPRPWICPRP	Escherichia coli TOP10	shrunken log2 fold change	-1
